Numbers sourced from patent US20210355194A1.

- MEASUREMENT_TARGET: ACE2 (human, UniProt Q9BYF1 18-740)
- Sequence (Q9BYF1 18-740 limits assumed): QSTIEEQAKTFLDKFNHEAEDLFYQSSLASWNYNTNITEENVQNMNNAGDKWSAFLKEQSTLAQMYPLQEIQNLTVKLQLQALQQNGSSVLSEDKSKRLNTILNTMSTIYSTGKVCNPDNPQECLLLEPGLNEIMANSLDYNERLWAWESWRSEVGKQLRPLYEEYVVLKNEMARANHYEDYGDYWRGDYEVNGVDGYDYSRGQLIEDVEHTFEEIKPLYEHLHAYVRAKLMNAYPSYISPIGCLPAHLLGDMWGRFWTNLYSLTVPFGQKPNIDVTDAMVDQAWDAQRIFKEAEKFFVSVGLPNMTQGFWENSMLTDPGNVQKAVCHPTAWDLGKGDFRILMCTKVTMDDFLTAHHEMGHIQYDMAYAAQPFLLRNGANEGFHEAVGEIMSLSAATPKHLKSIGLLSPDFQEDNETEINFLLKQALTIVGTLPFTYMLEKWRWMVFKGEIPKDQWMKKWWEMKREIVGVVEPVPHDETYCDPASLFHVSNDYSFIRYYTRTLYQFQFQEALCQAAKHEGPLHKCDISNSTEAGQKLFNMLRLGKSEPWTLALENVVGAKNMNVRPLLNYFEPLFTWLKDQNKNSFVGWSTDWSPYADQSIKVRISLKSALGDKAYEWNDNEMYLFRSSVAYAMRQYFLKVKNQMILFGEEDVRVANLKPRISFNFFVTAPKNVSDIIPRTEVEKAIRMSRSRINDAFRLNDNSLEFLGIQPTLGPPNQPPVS
RECORDED_ENDPOINT: log10(Kd) (log10 of the value in nM)
Answers are given as log10 of Kd in nM.

>  <BINDER>
ACE2 variant antibody 3-9 (antibody, V domains shown) VH: EVQLLESGGGLVQPGGSLRLSCAASGFTFRSYAMSWVRQAPGKGLEWVSSISGGGASTYYADSVKGRFTISRDNSKNTLYLQMNSLRAEDTAVYYCARVKYLTTSSGWPRPYFDNWGQGTLVTVSS VL: DIQMTQSPSSLSASVGDRVTITCRASQSIGKYLNWYQQKPGKAPKLLIYASSTLQRGVPSRFSGSGSGTDFTLTISSLQPEDFATYYCQQSFSTPFTFGQGTKVEIK

>  <log10(Kd)>
1.83

$$$$
>  <BINDER>
ACE2 variant antibody 4-56 (VHH) VHH: EVQLVESGGGLVQPGGSLRLSCAASGFSLDYYGMGWFRQAPGKERESVAAISWNGDFTAYADSVKGRFTISADNSKNTAYLQMNSLKPEDTAVYYCAKRANPTGAYFDYWGQGTLVTVSS

>  <log10(Kd)>
1.26

$$$$
>  <BINDER>
ACE2 variant antibody 4-82 (VHH) VHH: EVQLVESGGGLVQPGGSLRLSCAASGRTFGDYAMGWFRQAPGKEREFVAAINWSGGYTRYADSVKGRFTISADNSKNTAYLQMNSLKPEDTAVYYCATDPPLFWGQGTLVTVSS

>  <log10(Kd)>
1.05

$$$$
>  <BINDER>
ACE2 variant antibody 4-76 (VHH) VHH: EVQLVESGGGLVQPGGSLRLSCAASGRTFGDYAMGWFRQAPGKERELVAPINWSGGSTYYADSVKGRFTISADNSKNTAYLQMNSLKPEDTAVYYCATDPPLFWGQGTLVTVSS

>  <log10(Kd)>
1.50

$$$$
>  <BINDER>
ACE2 variant antibody 4-49 (VHH) VHH: EVQLVESGGGLVQPGGSLRLSCAASGRTFGDYIMGWFRQAPGKERESVAAINWSAGYTAYADSVKGRFTISADNSKNTAYLQMNSLKPEDTAVYYCARASPNTGWHFDHWGQGTLVTVSS

>  <log10(Kd)>
-0.52

$$$$
>  <BINDER>
ACE2 variant antibody 4-57 (VHH) VHH: EVQLVESGGGLVQPGGSLRLSCAASGLTFRNYAMGWFRQAPGKEREFVAAIGSGGYTDYADSVKGRFTISADNSKNTAYLQMNSLKPEDTAVYYCAVKPGWVARDPSQYNWGQGTLVTVSS

>  <log10(Kd)>
0.89

$$$$
>  <BINDER>
ACE2 variant antibody 4-41 (VHH) VHH: EVQLVESGGGLVQPGGSLRLSCAASGRTFGDYIMGWFRQAPGKERESVAAINWSGGTTPYADSVKGRFTISADNSKNTAYLQMNSLKPEDTAVYYCATDPPLFCCHVDLWGQGTLVTVSS

>  <log10(Kd)>
0.75

$$$$
>  <BINDER>
ACE2 variant antibody 4-78 (VHH) VHH: EVQLVESGGGLVQPGGSLRLSCAASGRTFSDDTMGWFRQAPGKEREFVAGMTWSGSSTFYADSVKGRFTISADNSKNTAYLQMNSLKPEDTAVYYCATDPPLFWGQGTLVTVSS

>  <log10(Kd)>
1.03

$$$$

Could you share which log10(Kd) value was measured for ACE2 variant antibody 4-69 (VHH) VHH: EVQLVESGGGLVQPGGSLRLSCAASGRTFSDDAMGWFRQAPGKEREFVAAINWSGGTTRYADSVKGRFTISADNSKNTAYLQMNSLKPEDTAVYYCATDPPLFWGQGTLVTVSS ?
1.41

What do you get for ACE2 variant antibody 4-64 (VHH) VHH: EVQLVESGGGLVQPGGSLRLSCAASGRTFGDYIMGWFRQAPGKERESVAAINWSAGYTAYADSVKGRFTISADNSKNTAYLQMNSLKPEDTAVYYCATASPNTGWHFDHWGQGTLVTVSS ?
-0.70

What do you get for ACE2 variant antibody 4-61 (VHH) VHH: EVQLVESGGGLVQPGGSLRLSCAASGRTFGDYIMGWFRQAPGKEREIVAAINWSADYTPYADSVKGRFTISADNSKNTAYLQMNSLKPEDTAVYYCATAPPNTGWHFDHWGQGTLVTVSS ?
0.91

What do you get for ACE2 variant antibody 4-67 (VHH) VHH: EVQLVESGGGLVQPGGSLRLSCAASGRTFSDDTMGWFRQAPGKEREFVAAINWSGDSTYYADSVKGRFTISADNSKNTAYLQMNSLKPEDTAVYYCATDPPLFWGQGTLVTVSS ?
1.36

What do you get for ACE2 variant antibody 3-13 (antibody, V domains shown) VH: EVQLLESGGGLVQPGGSLRLSCAASGFTITNYAMSWVRQAPGKGLEWVSGISGSGAGTYYADSVKGRFTISRDNSKNTLYLQMNSLRAEDTAVYYCARHTWWKGAGFFDHWGQGTLVTVSS VL: DIQMTQSPSSLSASVGDRVTITCRASQSIGRYLNWYQQKPGKAPKLLIYAASSLKSGVPSRFSGSGSGTDFTLTISSLQPEDFATYYCQQSYSLPRTFGQGTKVEIK ?
2.10

What do you get for ACE2 variant antibody 4-95 (VHH) VHH: EVQLVESGGGLVQPGGSLRLSCAASGRTFGDYIMGWFRQAPGKEREIVAAINWSAGYTAYADSVKGRFTISADNSKNTAYLQMNSLKPEDTAVYYCATAPPLFCWHFDHWGQGTLVTVSS ?
1.27

What do you get for ACE2 variant antibody 3-12 (antibody, V domains shown) VH: EVQLLESGGGLVQPGGSLRLSCAASGFTFRSHAMNWVRQAPGKGLEWVSAISGSGGSTNYADSVKGRFTISRDNSKNTLYLQMNSLRAEDTAVYYCARGLKFLEWLPSAFDIWGQGTLVTVSS VL: DIQMTQSPSSLSASVGDRVTITCRTSQSINTYLNWYQQKPGKAPKLLIYGASNVQSGVPSRFSGSGSGTDFTLTISSLQPEDFATYYCQQSYRIPRTFGQGTKVEIK ?
2.62
